Numbers sourced from ChEMBL document CHEMBL4385607.

- measurement-description: Half life in Beagle dog at 0.5 mg/kg, iv administered as single dose measured upto 24 hrs by LC-MS/MS analysis
- Type: ADME, organism-based, Canis lupus familiaris
- measurement-conditions: in vivo
reported-property: half-life (h)
One number for each entry, in h.

Enquiry: Output half-life of O=S(=O)(Nc1ccncn1)c1cc2c(cc1F)[C@@H](N1CC[C@H](C(F)(F)F)C[C@@H]1c1ccccn1)CCO2
Return: 4.3

###

- measurement-description: Half life in Sprague-Dawley rat at 1 mg/kg, iv measured upto 8 hrs by LC-MS/MS analysis
- Assay type: ADME, organism-based
- measurement-conditions: in vivo
reported-property: half-life (h)
Give bare numbers, in h.

Enquiry: Output half-life of O=S(=O)(Nc1ccncn1)c1cc2c(cc1F)[C@@H](N1CC[C@H](C(F)(F)F)C[C@@H]1c1ccccn1)CCO2
Return: 1.7

###

- measurement-description: Ratio of drug uptake in Sprague-Dawley rat liver to plasma at 5 mg/kg, po measured up to 8 hrs by LC-MS/MS analysis
- Format: ADME, organism-based
Exercise: for every item that follows, state its recorded Kp at 8 h.

# chem-smiles, result
records = [
    ("O=S(=O)(Nc1ncns1)c1ccc2c(c1)OCC[C@@H]2N1CC[C@H](C(F)(F)F)C[C@@H]1c1ccc(F)cc1", 202),
]

Now for a further compound.
Enquiry: Output Kp at 8 h of O=S(=O)(Nc1ccncn1)c1cc2c(cc1F)[C@@H](N1CC[C@H](C(F)(F)F)C[C@@H]1c1ccc(F)cc1)CCO2
Return: 4

###

- measurement-description: Clearance in Beagle dog at 0.5 mg/kg, iv administered as single dose measured upto 24 hrs by LC-MS/MS analysis relative to hepatic blood flow
- Format: ADME, organism-based, Canis lupus familiaris
- measurement-conditions: in vivo
reported-property: clearance

Enquiry: Output clearance of O=S(=O)(Nc1ccncn1)c1cc2c(cc1F)[C@@H](N1CC[C@H](C(F)(F)F)C[C@@H]1c1ccccn1)CCO2
Return: 8 to 44%

###

- measurement-description: Half life in cynomolgus monkey at 0.5 mg/kg, iv administered as single dose measured upto 24 hrs by LC-MS/MS analysis
- Format: ADME, organism-based, Macaca fascicularis
- measurement-conditions: in vivo
reported-property: half-life (h)
Give bare numbers, in h.

Enquiry: Output half-life of O=S(=O)(Nc1ccncn1)c1cc2c(cc1F)[C@@H](N1CC[C@H](C(F)(F)F)C[C@@H]1c1ccccn1)CCO2
Return: 2.1

###

Exercise: for every item that follows, state its recorded CLhep predicted at 1 µM.
- measurement-description: Clearance in human hepatocytes at 1 uM measured up to 3 hrs by LC-MS/MS analysis
- Format: ADME, cell-based, Hepatocyte

Below, 5 molecules whose answers are already recorded.
# chem-smiles, CLhep predicted at 1 µM
data = [
    ("Cn1ccc([C@H]2C[C@@H](C(F)(F)F)CCN2[C@H]2CCOc3cc(S(=O)(=O)Nc4ccncn4)c(F)cc32)n1", "8.2 mL/min/kg"),
    ("O=S(=O)(Nc1ccncn1)c1cc2c(cc1F)[C@@H](N1CC[C@H](C(F)(F)F)C[C@@H]1c1cn[nH]c1)CCO2", "12 mL/min/kg"),
    ("O=S(=O)(Nc1ccc(F)cn1)c1cc2c(cc1F)[C@@H](N1CC[C@H](C(F)(F)F)C[C@@H]1c1ccc(F)cc1)CCO2", "< 6.2 mL/min/kg"),
    ("O=S(=O)(Nc1ccncn1)c1cc2c(cc1F)[C@@H](N1CC[C@H](C(F)(F)F)C[C@@H]1c1cc[nH]n1)CCO2", "9.1 mL/min/kg"),
    ("O=S(=O)(Nc1ccncn1)c1cc2c(cc1F)[C@@H](N1CC[C@H](C(F)(F)F)C[C@@H]1c1cccnc1)CCO2", "15 mL/min/kg"),
]

I need CLhep predicted at 1 µM for every entry listed below, if you could help.
1. Cn1nccc1[C@H]1C[C@@H](C(F)(F)F)CCN1[C@H]1CCOc2cc(S(=O)(=O)Nc3ccncn3)c(F)cc21
2. O=S(=O)(Nc1ccncn1)c1cc2c(cc1F)[C@@H](N1CC[C@H](C(F)(F)F)C[C@@H]1c1ccc(F)cc1)CCO2
3. O=S(=O)(Nc1ccncn1)c1cc2c(cc1F)[C@@H](N1CC[C@H](C(F)(F)F)C[C@@H]1c1ccnnc1)CCO2
4. O=S(=O)(Nc1ccncn1)c1cc2c(cc1F)[C@@H](N1CC[C@H](C(F)(F)F)C[C@@H]1c1ccccn1)CCO2
5. O=S(=O)(Nc1ncns1)c1ccc2c(c1)OCC[C@@H]2N1CC[C@H](C(F)(F)F)C[C@@H]1c1ccccc1
6. O=S(=O)(Nc1ccon1)c1cc2c(cc1F)[C@@H](N1CC[C@H](C(F)(F)F)C[C@@H]1c1ccc(F)cc1)CCO2

Return:
14 mL/min/kg
7.7 mL/min/kg
< 6.2 mL/min/kg
< 6.2 mL/min/kg
11 mL/min/kg
< 6.2 mL/min/kg

I need CLhep predicted at 1 µM for every entry listed below, if you could help.
1. O=S(=O)(Nc1ccncn1)c1cc2c(cc1F)[C@@H](N1CC[C@H](C(F)(F)F)C[C@@H]1c1cnco1)CCO2
2. O=S(=O)(Nc1cccnn1)c1cc2c(cc1F)[C@@H](N1CC[C@H](C(F)(F)F)C[C@@H]1c1ccc(F)cc1)CCO2
3. O=S(=O)(Nc1ccncn1)c1cc2c(cc1F)[C@@H](N1CC[C@H](C(F)(F)F)C[C@@H]1c1cnccn1)CCO2
4. O=S(=O)(Nc1ccncn1)c1cc2c(cc1F)[C@@H](N1CC[C@H](C(F)(F)F)C[C@@H]1c1ccncc1)CCO2
5. O=S(=O)(Nc1ccncn1)c1cc2c(cc1F)[C@@H](N1CC[C@H](C(F)(F)F)C[C@@H]1c1ccncn1)CCO2

Return:
1: 12 mL/min/kg; 2: < 6.2 mL/min/kg; 3: 9 mL/min/kg; 4: 13 mL/min/kg; 5: 7.8 mL/min/kg

Enquiry: Output CLhep predicted at 1 µM of O=S(=O)(Nc1ncns1)c1ccc2c(c1)OCC[C@@H]2N1CC[C@H](C(F)(F)F)C[C@@H]1c1ccc(F)cc1
Return: 11 mL/min/kg

###

- measurement-description: Dissociation constant, basic pKa of compound
- Assay type: physicochemical
reported-property: pKa
Numbers only.

Enquiry: Output pKa of O=S(=O)(Nc1ncns1)c1cc(F)c(CN2CC[C@H](C(F)(F)F)C[C@@H]2c2ccccc2)cc1F
Return: 5.5

###

- measurement-description: Volume of distribution at steady state in FVB mouse at 1 mg/kg, iv measured upto 6 hrs by LC-MS/MS analysis
- Type: ADME, organism-based
- measurement-conditions: in vivo, read-out: Vdss
Exercise: for every item that follows, state its recorded Vd.
One number for each entry, in L/kg.

# chem-smiles, reported-property, readout-unit, numeric-readout
records = [
    ("O=S(=O)(Nc1ncns1)c1ccc2c(c1)OCC[C@@H]2N1CC[C@H](C(F)(F)F)C[C@@H]1c1ccc(F)cc1", "Vd", "L/kg", 4.8),
]

Now for a further compound.
Enquiry: Output Vd of O=S(=O)(Nc1ccncn1)c1cc2c(cc1F)[C@@H](N1CC[C@H](C(F)(F)F)C[C@@H]1c1ccc(F)cc1)CCO2
Return: 0.9

###

- measurement-description: Oral bioavailability in cynomolgus monkey at 0.5 mg/kg administered as single dose measured upto 24 hrs by LC-MS/MS analysis
- Type: ADME, organism-based, Macaca fascicularis
- measurement-conditions: in vivo
reported-property: bioavailability (%)
One number for each entry, in %.

Enquiry: Output bioavailability of O=S(=O)(Nc1ccncn1)c1cc2c(cc1F)[C@@H](N1CC[C@H](C(F)(F)F)C[C@@H]1c1ccccn1)CCO2
Return: 18

###

- measurement-description: Plasma clearance in Sprague-Dawley rat at 1 mg/kg, iv measured up to 8 hrs by LC-MS/MS analysis
- Assay type: ADME, organism-based
Doc: threshold 60 mL/min/kg (exclusive). Items with clearance beneath it return T; others return F.

# chem-smiles, assigned-class
records = [
    ("O=S(=O)(Nc1ccc(F)cn1)c1cc2c(cc1F)[C@@H](N1CC[C@H](C(F)(F)F)C[C@@H]1c1ccc(F)cc1)CCO2", "T"),
]

Enquiry: API: query returns whether the compound falls strictly under 60 mL/min/kg in clearance. Query: O=S(=O)(Nc1ccncn1)c1cc2c(cc1F)[C@@H](N1CC[C@H](C(F)(F)F)C[C@@H]1c1cccnc1)CCO2
Return: F

Enquiry: API: query returns whether the compound falls strictly under 60 mL/min/kg in clearance. Query: O=S(=O)(Nc1cccnn1)c1cc2c(cc1F)[C@@H](N1CC[C@H](C(F)(F)F)C[C@@H]1c1ccc(F)cc1)CCO2
Return: T

Enquiry: API: query returns whether the compound falls strictly under 60 mL/min/kg in clearance. Query: O=S(=O)(Nc1ccncn1)c1cc2c(cc1F)[C@@H](N1CC[C@H](C(F)(F)F)C[C@@H]1c1cnco1)CCO2
Return: F

Enquiry: API: query returns whether the compound falls strictly under 60 mL/min/kg in clearance. Query: O=S(=O)(Nc1ccncn1)c1cc2c(cc1F)[C@@H](N1CC[C@H](C(F)(F)F)C[C@@H]1c1ccncc1)CCO2
Return: F
